Hello, the source for this data is PubChem BioAssay (EPA / NIEHS), in case you need it.

read-out: Collagen III, COL3A1 (gene 1281); experiment: BSK_MyoF_CollagenIII: BioMAP Diversity Plus: MyoF Assay for Collagen III Biomarker Activity (AID 2284239); conditions: primary human lung fibroblasts
Activity calls are given as the source filed them. How the source made its calls: active means hit-call score of the fitted dose curve at least 0.9, where 1 is the maximum; inactive means score below 0.9.
Outcome codes: 1 (active), 0 (inactive)

[[record]]
compound = "CN(C)c1ccc(C(c2ccccc2)c2ccc(N(C)C)cc2)cc1"
label_class = 0

[[record]]
compound = "Cc1cccnc1"
label_class = 0

[[record]]
compound = "Cc1cc(-n2nc3ccc(Cl)cc3n2)c(O)c(C(C)(C)C)c1"
label_class = 0

[[record]]
compound = "CC[N+](CC)(CC(=O)Nc1c(C)cccc1C)Cc1ccccc1"
label_class = 0

[[record]]
compound = "CCCCCCCCCCC1CO1 (centres undefined)"
label_class = 1

[[record]]
compound = "COC(=O)/C=C\\C(=O)OC"
label_class = 0

[[record]]
compound = "CCCCCCCCCCCCCCCCCC[N+](C)(C)C"
label_class = 1

[[record]]
compound = "CC(C)CC(=O)CC(C)CC(C)C (centres undefined)"
label_class = 0

[[record]]
compound = "Oc1cccc2ccccc12"
label_class = 1

